The values you see were collected from patent US20150037349A1.

# tested target: T1, rat TNF-alpha (rat, UniProt P16599 80-235)
# T1 sequence (looked up): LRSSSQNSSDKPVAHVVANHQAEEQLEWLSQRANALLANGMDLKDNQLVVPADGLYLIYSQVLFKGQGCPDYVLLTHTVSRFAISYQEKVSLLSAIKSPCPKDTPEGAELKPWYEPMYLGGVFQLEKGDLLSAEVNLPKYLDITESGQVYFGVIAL
# protocol: antigen cross-reactivity, as described in the Examples above
value type: binding result

VL18-3L-VL11 DI #3 (other, also called Variant 3) ELVLTQQPASVEAAPGGTVTIKCQASQSISSYLAWYQQKPGHPPKLLIYKVSTRASGVSSRFSGSGSGTEFTLTISDLKSADAATYYCQSTYLGGTYVGGAFGGGTELEIKSGGGGSGGGGSGGGGSSGELVMTQQPASVEAAPGGTVTIKCQASQSISSYLAWYQQKPGQPPKLLIYRVSTRASGVSSRFSGSGSGTEFTLTISDLKSADAATYYCQSTYVNRGSVAAFGGGTKVVVKYPYDVPDYA	binds
VL18-3L-VL11 DI #5 (other, also called Variant 5) ELVLTQQPASVEAAPGGTVTIKCQASQSISSYLAWYQQKPGHPPKLLIYKASTLASGVSSRFSGSGSGTEFTLTISDLKSADAATYYCQSTYLGGTYVGGAFGGGTELEIKSGGGGSGGGGSGGGGSSGELVMTQQPASVEAAPGGTVTIKCQASQSISSYLAWYQQKPGQPPKLLIYRASTLASGVSSRFSGSGSGTEFTLTISDLKSADAATYYCQSTYVNRGSVAAFGGGTKVVVKYPYDVPDYA	binds
VL18-3L-VL11 DI #1 (other, Cloned in pET28a; also called Variant 1) ELVLTQQPASVEAAPGGTVTIKCQASQSISSYLAWYQQKPGHPPKLLIYKVSTRASGVSSRFSGSGSGTEFTLTISDLKSADAATYYCQSAYLGGTYVGGAFGGGTELEIKSGGGGSGGGGSGGGGSSGELVMTQQPASVEAAPGGTVTIKCQASQSISSYLAWYQQKPGQPPKLLIYRVSTRASGVSSRFSGSGSGTEFTLTISDLKSADAATYYCQSAYVNRGSVASFGGGTKVVVKYPYDVPDYA	binds
